Task for the reader: assign each of the following compounds its reported selectivity ratio.
test: Therapeutic ratio as optimal dose/minimal effective dose; type: ADME; details: mouse, p388; read-out: TR

Ask: Given the compound COC12[C@@H](COC(N)=O)C3=C(C(O)=C(C)/C(=N\CCS)C3=O)N1C[C@@H]1[C@H]2N1C (stereo not given in full) , write its reported selectivity ratio.
Result: 8

Ask: Note down selectivity ratio recorded for COC12[C@@H]3N[C@@H]3CN1C1=C(C(=O)/C(=N/CCF)C(C)=C1O)[C@@H]2COC(N)=O (stereo not given in full)
Result: 16

Ask: Supply measured selectivity ratio of COC12[C@@H]3N[C@@H]3CN1C1=C(C(=O)/C(=N/CCS)C(C)=C1O)[C@@H]2COC(N)=O (stereo not given in full) in your reply.
Result: 64

Ask: Please look at this compound and report its selectivity ratio: COC12[C@@H]3N[C@@H]3CN1C1=C(C(=O)C(NCCN(C)C)=C(C)C1=O)[C@@H]2COC(N)=O (stereo not given in full)
Result: 32

Ask: Complete the entry with selectivity ratio for COC12[C@@H]3N[C@@H]3CN1C1=C(C(=O)C(NCCc3ccccc3)=C(C)C1=O)[C@@H]2COC(N)=O (stereo not given in full)
Result: 16

Ask: Report selectivity ratio, nothing else, for this compound: COC12[C@@H]3N[C@@H]3CN1C1=C(C(=O)/C(=N/CCN)C(C)=C1O)[C@@H]2COC(N)=O (stereo not given in full)
Result: 8

Ask: Tell me its selectivity ratio given COC12[C@@H](COC(N)=O)C3=C(C(=O)C(C)=C(NCCCl)C3=O)N1C[C@@H]1[C@H]2N1C (stereo not given in full) as the entry.
Result: 8

Ask: Please report selectivity ratio for the following compound: COC(C/N=C1/C(=O)C2=C(C(O)=C1C)N1C[C@H]3N[C@H]3C1(OC)[C@H]2COC(N)=O)OC (stereo not given in full)
Result: 8

Ask: For COC12[C@@H]3N[C@@H]3CN1C1=C(C(=O)C(N[C@@H]3CC3c3ccccc3)=C(C)C1=O)[C@@H]2COC(N)=O (stereo not given in full) , write its selectivity ratio.
Result: 16

Ask: Read the entry COC12[C@@H]3N[C@@H]3CN1C1=C(C(=O)C(NCCc3ccc(O)c(O)c3)=C(C)C1=O)[C@@H]2COC(N)=O (stereo not given in full) and write its reported selectivity ratio.
Result: 1

Ask: Tell me selectivity ratio reported for COC12[C@@H]3N[C@@H]3CN1C1=C(C(=O)/C(=N/CCO)C(C)=C1O)[C@@H]2COC(N)=O (stereo not given in full)
Result: 16

Ask: Retrieve selectivity ratio measured for CCSCC/N=C1/C(=O)C2=C(C(O)=C1C)N1C[C@H]3N[C@H]3C1(OC)[C@H]2COC(N)=O (stereo not given in full) and print it.
Result: 8

Ask: Read the entry COC12[C@@H]3N[C@@H]3CN1C1=C(C(=O)/C(=N/CCN3CCCC3)C(C)=C1O)[C@@H]2COC(N)=O (stereo not given in full) and write its reported selectivity ratio.
Result: 32

Ask: Give selectivity ratio for CCN1CCCC1C/N=C1/C(=O)C2=C(C(O)=C1C)N1C[C@H]3N[C@H]3C1(OC)[C@H]2COC(N)=O (stereo not given in full)
Result: 16

Ask: Tell me measured selectivity ratio for COC12[C@@H]3N[C@@H]3CN1C1=C(C(=O)C(NCCC#N)=C(C)C1=O)[C@@H]2COC(N)=O (stereo not given in full) please.
Result: 16
